- run-description: Selectivity index, ratio of IC50 for HUVEC to MIC80 for azole-resistant Candida tropicalis 5008
- Type: toxicity
- test-settings: human

| molecule | selectivity ratio |
| --- | --- |
| CN(Cc1ccc(-n2cnn(CCCCc3ccc(C(=O)NO)cc3)c2=O)cc1)CC(O)(Cn1cncn1)c1ccc(F)cc1F (racemic) | 2 to 16 |
| CN(Cc1ccc(OCCCOc2ccc(CC(=O)NO)cc2)cc1)CC(O)(Cn1cncn1)c1ccc(F)cc1F (racemic) | 2 to 16 |

---

IC50, Protein deacetylase HDAC6 (Homo sapiens): measured values
measure: IC50 (nM)

| compound | measure | unit-abbrev | test-value |
| --- | --- | --- | --- |
| CN(Cc1ccc(OCCCOc2ccc(CC(=O)NO)cc2)cc1)CC(O)(Cn1cncn1)c1ccc(F)cc1F (racemic) | IC50 | nM | 600 |
| CN(Cc1ccc(-n2cnn(CCCCc3ccc(C(=O)NO)cc3)c2=O)cc1)CC(O)(Cn1cncn1)c1ccc(F)cc1F (racemic) | IC50 | nM | 120 |

---

- run-description: Selectivity index, ratio of IC50 for HUVEC to MIC80 for azole-resistant Candida albicans 4108
- Assay type: toxicity
- test-settings: human
Reported selectivity ratio values are given for each entry in this list.
measure: selectivity ratio

| molecule | test-value |
| --- | --- |
| CN(Cc1ccc(OCCCOc2ccc(CC(=O)NO)cc2)cc1)CC(O)(Cn1cncn1)c1ccc(F)cc1F (racemic) | 2 to 16 |
| CN(Cc1ccc(-n2cnn(CCCCc3ccc(C(=O)NO)cc3)c2=O)cc1)CC(O)(Cn1cncn1)c1ccc(F)cc1F (racemic) | 2 to 16 |

---

Reported MIC80 values are given for each entry in this list.
- System: Candida albicans
- run-description: Antifungal activity against azole-resistant Candida albicans 4108 after 48 hrs by spectrophotometry-based serial microdilution method
- Assay type: functional
- test-settings: Candida albicans, 4108, 48 h
measure: MIC80

| compound | measure | test-value |
| --- | --- | --- |
| C[C@@H](c1ncncc1F)[C@](O)(Cn1cncn1)c1ccc(F)cc1F | MIC80 | > 64 µg/mL |
| O=C(Cc1ccc(OCCCc2ncn(CC(O)(Cn3cncn3)c3ccc(F)cc3F)n2)cc1)NO (racemic) | MIC80 | > 64 µg/mL |
| O=C(NO)c1ccc(OCCCCc2ncnn2CC(O)(Cn2cncn2)c2ccc(F)cc2F)cc1 (racemic) | MIC80 | > 64 µg/mL |

---

Reported MIC80 values are given for each entry in this list.
- System: Candida albicans
- run-description: Antifungal activity against azole-resistant Candida albicans 0304103 after 48 hrs by spectrophotometry-based serial microdilution method
- Format: functional
- test-settings: Candida albicans, 0304103, 48 h

| molecule | lt-gt-eq | MIC80 / µg/mL |
| --- | --- | --- |
| O=C(NO)c1ccc(OCCCCc2ncn(CC(O)(Cn3cncn3)c3ccc(F)cc3F)n2)cc1 (racemic) | > | 64 |
| CN(Cc1ccc(CCCCOc2ccc(CC(=O)NO)cc2)cc1)CC(O)(Cn1cncn1)c1ccc(F)cc1F (racemic) | = | 0.5 |
| CN(Cc1ccc(CCCOc2ccc(CC(=O)NO)cc2)cc1)CC(O)(Cn1cncn1)c1ccc(F)cc1F (racemic) | = | 0.5 |
| O=C(NO)c1ccc(OCCCCc2ncnn2CC(O)(Cn2cncn2)c2ccc(F)cc2F)cc1 (racemic) | = | 32 |

---

- Tested on: Candida albicans
- run-description: Antifungal activity against azole-resistant Candida albicans 0304103 after 48 hrs by spectrophotometry-based serial microdilution method
- Format: functional
- test-settings: Candida albicans, 0304103, 48 h
MIC80 strictly under 4 µg/mL means True; at 4 µg/mL or over means False.

| compound | assigned-category |
| --- | --- |
| C[C@@H](c1ncncc1F)[C@](O)(Cn1cncn1)c1ccc(F)cc1F | False |
| CN(Cc1ccc(CCCC(=O)Nc2ccc(C(=O)NO)cc2)cc1)CC(O)(Cn1cncn1)c1ccc(F)cc1F (racemic) | False |
| CN(Cc1ccc(OCCCCCCCC(=O)NO)cc1)CC(O)(Cn1cncn1)c1ccc(F)cc1F (racemic) | True |
| O=C(Cc1ccc(OCCCc2ncnn2CC(O)(Cn2cncn2)c2ccc(F)cc2F)cc1)NO (racemic) | False |
| CN(Cc1ccc(OCCCOc2ccc(CCC(=O)NO)cc2)cc1)CC(O)(Cn1cncn1)c1ccc(F)cc1F (racemic) | True |
| O=C(Cc1ccc(OCCCc2ncn(CC(O)(Cn3cncn3)c3ccc(F)cc3F)n2)cc1)NO (racemic) | False |
| CN(Cc1cccc(OCCCOc2ccc(C(=O)NO)cc2)c1)CC(O)(Cn1cncn1)c1ccc(F)cc1F (racemic) | True |
| CN(Cc1ccc(OCCCCC(=O)NO)cc1)CC(O)(Cn1cncn1)c1ccc(F)cc1F (racemic) | True |

---

- System: Candida albicans
- run-description: Antifungal activity against azole-resistant Candida albicans 4108 after 48 hrs by spectrophotometry-based serial microdilution method
- Type: functional
- test-settings: Candida albicans, 4108, 48 h
measure: MIC80

| compound | measure | test-value |
| --- | --- | --- |
| OC(Cn1cncn1)(Cn1cncn1)c1ccc(F)cc1F | MIC80 | > 64 µg/mL |
| O=C(Cc1ccc(OCCCc2ncnn2CC(O)(Cn2cncn2)c2ccc(F)cc2F)cc1)NO (racemic) | MIC80 | > 64 µg/mL |
| O=C(NO)c1ccc(OCCCCc2ncn(CC(O)(Cn3cncn3)c3ccc(F)cc3F)n2)cc1 (racemic) | MIC80 | > 64 µg/mL |

Values compiled from ChEMBL document CHEMBL4342527.
